Each recorded value in this set is attributed to patent US10457703B2.

Biological target: human FXR (NR1H4) (Homo sapiens (Human), UniProt Q96RI1)
Sequence (Q96RI1 whole entry, the tested form may be a part): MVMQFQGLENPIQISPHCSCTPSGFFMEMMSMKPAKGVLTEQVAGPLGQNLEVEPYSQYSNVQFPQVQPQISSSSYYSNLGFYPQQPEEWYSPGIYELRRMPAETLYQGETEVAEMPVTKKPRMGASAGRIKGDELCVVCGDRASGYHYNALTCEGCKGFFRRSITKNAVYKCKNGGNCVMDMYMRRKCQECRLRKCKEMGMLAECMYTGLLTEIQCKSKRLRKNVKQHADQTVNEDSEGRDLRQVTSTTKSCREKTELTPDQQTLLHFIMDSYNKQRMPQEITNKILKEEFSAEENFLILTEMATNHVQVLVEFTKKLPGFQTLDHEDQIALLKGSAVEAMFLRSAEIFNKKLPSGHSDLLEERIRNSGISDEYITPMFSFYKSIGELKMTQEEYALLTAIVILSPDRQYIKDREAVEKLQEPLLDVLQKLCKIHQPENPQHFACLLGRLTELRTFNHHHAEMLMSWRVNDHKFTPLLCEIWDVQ
Assay: Human FXR (NR1H4) Assay (Gal4 promoter driven luciferase reporter, Indigo Bioscience kit)
Details: Human FXR (NR1H4) Assay, potency ranges
pEC50: −log10 of the molar value.
Each record here notes measured pEC50.

Some entries whose results are on file:
Summary: CC[C@H]1[C@@H](O)[C@@H]2[C@H](CC[C@]3(C)[C@@H]([C@H](C)COC(=O)NS(=O)(=O)c4ccc(-c5ccc(C(F)(F)F)cc5)s4)CC[C@@H]23)[C@@]2(C)CC[C@@H](O)C[C@@H]12 [Example 27] , human FXR (NR1H4) (Homo sapiens (Human), UniProt Q96RI1), pEC50 = 6.00 to 7.00

Summary: CC[C@H]1[C@@H](O)[C@@H]2[C@H](CC[C@]3(C)[C@@H]([C@H](C)CCOC(=O)NS(=O)(=O)c4ccc5c(c4)OCCO5)CC[C@@H]23)[C@@]2(C)CC[C@@H](O)C[C@@H]12 [Example 90] , human FXR (NR1H4) (Homo sapiens (Human), UniProt Q96RI1), pEC50 = > 7.00

Summary: CC[C@H]1[C@@H](O)[C@@H]2[C@H](CC[C@]3(C)[C@@H]([C@H](C)CCOC(=O)NS(=O)(=O)c4ccc(F)c(F)c4)CC[C@@H]23)[C@@]2(C)CC[C@@H](O)C[C@@H]12 [Example 102] , human FXR (NR1H4) (Homo sapiens (Human), UniProt Q96RI1), pEC50 = > 7.00

Summary: CC[C@H]1[C@@H](O)[C@@H]2[C@H](CC[C@]3(C)[C@@H]([C@H](C)COC(=O)NS(=O)(=O)c4ccc(C5CCCCC5)cc4)CC[C@@H]23)[C@@]2(C)CC[C@@H](O)C[C@@H]12 [Example 11] , human FXR (NR1H4) (Homo sapiens (Human), UniProt Q96RI1), pEC50 = > 7.00

Summary: CC[C@H]1[C@@H](O)[C@@H]2[C@H](CC[C@]3(C)[C@@H]([C@H](C)CCOC(=O)NS(=O)(=O)CC(C)(C)C)CC[C@@H]23)[C@@]2(C)CC[C@@H](O)C[C@@H]12 [Example 103] , human FXR (NR1H4) (Homo sapiens (Human), UniProt Q96RI1), pEC50 = > 7.00

Summary: CC[C@H]1[C@@H](O)[C@@H]2[C@H](CC[C@]3(C)[C@@H]([C@H](C)COC(=O)NS(=O)(=O)c4ccc(-c5ncccn5)cc4)CC[C@@H]23)[C@@]2(C)CC[C@@H](O)C[C@@H]12 [Example 36] , human FXR (NR1H4) (Homo sapiens (Human), UniProt Q96RI1), pEC50 = > 7.00

Summary: CC[C@H]1[C@@H](O)[C@@H]2[C@H](CC[C@]3(C)[C@@H]([C@H](C)CCOC(=O)NC(C)CO)CC[C@@H]23)[C@@]2(C)CC[C@@H](O)C[C@@H]12 (stereo partly drawn) [Example 139] , human FXR (NR1H4) (Homo sapiens (Human), UniProt Q96RI1), pEC50 = 6.00 to 7.00

Summary: CC[C@H]1[C@@H](O)[C@@H]2[C@H](CC[C@]3(C)[C@@H]([C@H](C)CCCOC(=O)Nc4ccc(C(C)(C)C)cc4)CC[C@@H]23)[C@@]2(C)CC[C@@H](O)C[C@@H]12 [Example 121] , human FXR (NR1H4) (Homo sapiens (Human), UniProt Q96RI1), pEC50 = 5.00 to 6.00

Others:
Summary: CC[C@H]1[C@@H](O)[C@@H]2[C@H](CC[C@]3(C)[C@@H]([C@H](C)CCOC(=O)NCc4ccc(C(C)(C)C)cc4)CC[C@@H]23)[C@@]2(C)CC[C@@H](O)C[C@@H]12 [Example 189] , human FXR (NR1H4) (Homo sapiens (Human), UniProt Q96RI1), pEC50 = 5.00 to 6.00
